Tested on: MS2 coat protein
Assay: apparent KD of MS2 coat protein; designed switch direction (-1 OFF switch, 1 ON switch): -1; higher = weaker reporter binding
Details: input ligand: none
QUANTITY_KIND: apparent KD of MS2 coat protein (µM)
// note: answer is a bare numeric in µM

Answered cases to consult:
GAUUAACAUGAGGAUCACCCAUGUGAGGAUAUUGACUUGCUCACUUUCCCAUUAGAGUCGAGAAGGCGCAUCUU [1986#18] (Eterna round: R97, puzzle: Exclusion 1) : 0.0286
UUAGCUCAAGUCAGGAUAUUAGAGGCUUGCCUAAAUAAGAAGGGACAUGAGGAUCACCCAUGUCUAUGCAUGUA [BmEX4 A.16] (Eterna round: R97, puzzle: Brourd's mod of Exclusion 4) : 0.0159

get_value(item= AAAAGACAAGGAUAUACUUGGAAAAUAAAGCUUGAGGAAGUACUUGAGGAUCACCCAAGUAGAAGGUGUAGGCG [Edtiisre] (Eterna round: R97, puzzle: Exclusion 2) , readout=apparent KD of MS2 coat protein) returns 0.0315

The sequence identified as CCUGGGUAAGGAUAUUUGAUUCCCUCCGGUUAGGGAGGAUGGAAGAAGGUACAUGAGGAUCACCCAUGUGUGGA [Eternabot (L1) Solution 67] (Eterna round: R97, puzzle: Exclusion 4) registered its apparent KD of MS2 coat protein at 0.0978

Noted for UGUUCGGUAGGAUAUACAUCGCUGAAGUGGCGGUGACUUCAACAUGAGGAUCACCCAUGUAGAAGGGCCGGCUC [EX2 C.4] (Eterna round: R97, puzzle: Exclusion 2) : its apparent KD of MS2 coat protein reads 0.0165

// recorded apparent KD of MS2 coat protein for GGCAUGUAAGGAUAUCUAUCGGUGAGAAAACCAAUUGGGCAAGAGAAGGUACAUGAGGAUCACCCAUGUGGACC [Eternabot (L1) Solution 9] (Eterna round: R97, puzzle: Exclusion 4) : 0.044

Form: sequence = AGCACGACUGCAGGAUAUUCCGCAGUUGAUGCGGGAGAAGGGCAGGGCAGCACUUGAGGAUCACCCAAGUGACCGUGUUGCCAA [Mutated MS2 EX1.7] (Eterna round: R96, puzzle: Exclusion NG 1) ; apparent KD of MS2 coat protein = 0.0251

Query AGGACGAUAGGAUAUACAUGAGGAUCACCCAUGUGCAUAAGAAUAUGCCAAUCCACGCGUAGAAGGAUCAUAAU [Eternabot (Original) Solution 11] (Eterna round: R97, puzzle: Exclusion 3) yields apparent KD of MS2 coat protein of 0.0281
